Assignment: determine reported pest or weed control at 5000 ppm for the given compounds.
System: red mites (Dermanyssus gallinae)
measurement.description: Test Example 4: controlling effect on red mites, Pasteur pipette treated with acetone solution
Type: in vivo
details: Dermanyssus gallinae, 24 hours after treatment, unfed adult red mites, read-out: Ratio of dead and affected mites
Numbers only, in %.

Study these solved cases before continuing.
{"columns": ["compound", "tested.system", "unit.annotation", "pest or weed control at 5000 ppm"],
 "data": [
  ["CO/N=C(/C(=O)OC)c1ccccc1COc1ccccc1C [Kresoxim-Methyl]", "red mites (Dermanyssus gallinae)", "%", 52.8],
  ["CNC(=O)/C(=N/OC)c1ccccc1Oc1ccccc1 [Metominostrobin]", "red mites (Dermanyssus gallinae)", "%", 50]
]}

Batch request: pest or weed control at 5000 ppm for each of the following compounds.
1. Cc1ccccc1C(=O)Nc1cccc(OC(C)C)c1 [Mepronil]
2. Cc1ccc(-c2c(Cl)nc(C#N)n2S(=O)(=O)N(C)C)cc1 [Cyazofamid]
3. CO/C=C(/C(=O)OC)c1ccccc1COc1cc(C(F)(F)F)nc(OC(C)C)n1 [Fluacrypyrim]
4. Cc1nc(C(F)(F)F)c(C(=O)Nc2c(Br)cc(OC(F)(F)F)cc2Br)s1 [Thifluzamide]
5. O=[N+]([O-])c1cc(C(F)(F)F)c(Cl)c([N+](=O)[O-])c1Nc1ncc(C(F)(F)F)cc1Cl [Fluazinam]
6. O=C(Nc1ccccc1-c1ccc(Cl)cc1)c1cccnc1Cl [Boscalid]

1: 52.1; 2: 23.2; 3: 19.3; 4: 63.2; 5: 82.5; 6: 44.5

Batch request: pest or weed control at 5000 ppm for each of the following compounds.
1. C/C(=N/Nc1nc(C)cc(C)n1)c1ccccc1C [Ferimzone]
2. C[C@@]1(c2ccc(Oc3ccccc3)cc2)OC(=O)N(Nc2ccccc2)C1=O (racemic) [Famoxadone]

1. 53.5
2. 81.7

Batch request: pest or weed control at 5000 ppm for each of the following compounds.
1. CO/N=C(/C1=NOCCO1)c1ccccc1Oc1ncnc(Oc2ccccc2Cl)c1F [Fluoxastrobin]
2. O=C(NCCc1ncc(C(F)(F)F)cc1Cl)c1ccccc1C(F)(F)F [Fluopyram]
3. CCC(Nc1ncnc(C)c1Cl)c1ccc(OC(F)F)cc1 (stereo not shown) [Diflumetorim]

1: 66.5; 2: 50.5; 3: 100
